Taken from patent EP0564356A1.

# target system: récepteur vasculaire de l'angiotensine II (Oryctolagus cuniculus)
# Construct: réponse contractile induite par l'angiotensine II dans des anneaux isolés d'aorte de lapin
# Sequence (P34976 whole entry): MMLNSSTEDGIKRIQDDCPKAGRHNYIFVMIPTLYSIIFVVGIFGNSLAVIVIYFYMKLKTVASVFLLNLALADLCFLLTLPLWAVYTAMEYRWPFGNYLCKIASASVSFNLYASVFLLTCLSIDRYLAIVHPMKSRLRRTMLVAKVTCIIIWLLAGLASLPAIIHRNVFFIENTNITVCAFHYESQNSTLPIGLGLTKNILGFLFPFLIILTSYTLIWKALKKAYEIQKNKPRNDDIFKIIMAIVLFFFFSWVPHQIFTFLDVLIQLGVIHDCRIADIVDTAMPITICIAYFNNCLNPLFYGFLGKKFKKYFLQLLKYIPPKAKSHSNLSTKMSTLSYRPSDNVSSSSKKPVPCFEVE
# experiment: Antagonism of the angiotensin II-induced contractile response in isolated rabbit aortic rings
# settings: contraction by angiotensine II 3.10⁻⁹ M, test product preincubated 15 minutes, 37°C
reported property: pIC50
In plain terms, pIC50 is the concentration in mol/L turned into minus its base-10 logarithm.

Prompt line: # get_value(readout='pIC50', item= CCCCc1ncc(CNc2ccccc2C(=O)O)n1Cc1ccc(C(=O)NS(=O)(=O)c2ccc(Cl)cc2)cc1 )
Response line: 7.83

Prompt line: # get_value(readout='pIC50', item= CCCCc1nc(C(F)(F)F)c(CNc2ccccc2C(=O)O)n1Cc1ccc(C(=O)O)cc1 )
Response line: 8.20

Prompt line: # get_value(readout='pIC50', item= CCCCc1nc(Cl)c(CNc2c(Cl)cc(Cl)cc2C(=O)O)n1Cc1ccc(C(=O)O)cc1 )
Response line: 6.97

Prompt line: # get_value(readout='pIC50', item= CCCCc1ncc(CNc2ccccc2C(=O)OCC(=O)N(CC)CC)n1Cc1ccc(C(=O)OCC(=O)N(CC)CC)cc1 )
Response line: 7.52

Prompt line: # get_value(readout='pIC50', item= CCCCc1ncc(CNc2ccccc2C(=O)OCCOC)n1Cc1ccc(C(=O)O)cc1 )
Response line: 7.12

Prompt line: # get_value(readout='pIC50', item= CCCCc1nc(Cl)c(CNc2ccccc2-c2nnn[nH]2)n1Cc1ccc(C(=O)O)cc1 )
Response line: 7.40

Prompt line: # get_value(readout='pIC50', item= CCCCc1ncc(CNc2ccccc2C(=O)OCC(=O)OCC)n1Cc1ccc(C(=O)O)cc1 )
Response line: 8.00
